# System: HCC827(EGFR^L858R)
# Method description: IC50 of sanguinarine against NSCLC cell line HCC827
# Format: cell-based
# Condition parameters: Homo sapiens; HCC827, 48 hrs; read-out: IC50 value Treatment (48 hrs)
pIC50: −log10 of the molar value.
Readout label: pIC50

C[n+]1cc2c3c(ccc2c2ccc4cc5c(cc4c21)OCO5)OCO3 [sanguinarine]    5.98

---

# Tested on: H1650 (EGFR^Exon19 deletion)
# Method description: IC50 of sanguinarine against NSCLC cell line H1650
# Format: cell-based
# Condition parameters: Homo sapiens, NCI-H1650; H1650, 24 hrs; read-out: IC50 value Treatment (24 hrs)
Readout label: IC50 (µM)

C[n+]1cc2c3c(ccc2c2ccc4cc5c(cc4c21)OCO5)OCO3    3.47
